Please go through the items and note down their Inhibition of IFN-gamma Release IC50; Donor 4.
# target_entity: T1, human CD48 (on primary human peripheral blood mononuclear cells) (human, UniProt P09326 27-220)
# T1 sequence: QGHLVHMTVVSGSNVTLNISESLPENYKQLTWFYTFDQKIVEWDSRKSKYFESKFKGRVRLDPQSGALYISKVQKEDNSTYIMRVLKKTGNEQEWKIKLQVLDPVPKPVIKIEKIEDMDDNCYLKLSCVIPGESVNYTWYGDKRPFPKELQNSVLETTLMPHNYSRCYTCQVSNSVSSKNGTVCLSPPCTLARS
# protocol_notes: cell-based or functional assay
Numbers only, in Molar.

What value of Inhibition of IFN-gamma Release IC50; Donor 4 has been reported for the following binder? H2M1712N (antibody, mouse IgG2, V domains shown, Human variable domains, mouse IgG2 Fc (H2M)) VH: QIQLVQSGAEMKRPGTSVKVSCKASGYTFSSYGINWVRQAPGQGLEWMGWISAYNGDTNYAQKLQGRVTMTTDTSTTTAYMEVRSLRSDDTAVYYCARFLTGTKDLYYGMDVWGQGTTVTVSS VL: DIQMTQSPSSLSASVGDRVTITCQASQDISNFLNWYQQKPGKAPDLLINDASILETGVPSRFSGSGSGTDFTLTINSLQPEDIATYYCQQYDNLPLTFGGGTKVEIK
4.8e-11

// next record H2M1811N (antibody, mouse IgG2, V domains shown, Human variable domains, mouse IgG2 Fc (H2M)) VH: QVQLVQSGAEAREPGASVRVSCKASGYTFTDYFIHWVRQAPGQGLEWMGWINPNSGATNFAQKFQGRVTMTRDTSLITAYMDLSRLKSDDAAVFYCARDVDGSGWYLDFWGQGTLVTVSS VL: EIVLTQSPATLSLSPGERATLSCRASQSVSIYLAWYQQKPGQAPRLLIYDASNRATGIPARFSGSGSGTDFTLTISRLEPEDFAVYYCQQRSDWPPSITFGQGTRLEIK
4.8e-10

One more binder: H2M1710N (antibody, mouse IgG2, V domains shown, Human variable domains, mouse IgG2 Fc (H2M)) VH: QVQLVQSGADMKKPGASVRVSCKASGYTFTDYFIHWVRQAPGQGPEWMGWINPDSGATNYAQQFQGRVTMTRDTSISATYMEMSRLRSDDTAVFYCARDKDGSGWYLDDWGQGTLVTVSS VL: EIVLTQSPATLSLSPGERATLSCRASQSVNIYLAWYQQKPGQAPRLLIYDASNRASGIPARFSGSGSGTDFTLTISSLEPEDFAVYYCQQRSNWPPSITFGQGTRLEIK
1.5e-09

Try H2M1709N (antibody, mouse IgG2, V domains shown, Human variable domains, mouse IgG2 Fc (H2M)) VH: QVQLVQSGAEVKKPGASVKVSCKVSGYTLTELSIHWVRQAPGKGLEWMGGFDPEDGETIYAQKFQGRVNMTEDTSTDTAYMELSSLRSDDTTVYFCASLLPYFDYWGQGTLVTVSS VL: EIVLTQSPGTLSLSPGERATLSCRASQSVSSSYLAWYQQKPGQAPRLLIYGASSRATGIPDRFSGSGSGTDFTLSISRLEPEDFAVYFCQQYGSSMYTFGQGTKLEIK next.
1.1e-10

Next binder: H2M1713N (antibody, mouse IgG2, V domains shown, Human variable domains, mouse IgG2 Fc (H2M)) VH: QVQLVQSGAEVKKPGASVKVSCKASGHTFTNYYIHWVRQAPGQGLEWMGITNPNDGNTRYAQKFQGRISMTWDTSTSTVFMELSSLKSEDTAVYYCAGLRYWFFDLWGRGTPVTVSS VL: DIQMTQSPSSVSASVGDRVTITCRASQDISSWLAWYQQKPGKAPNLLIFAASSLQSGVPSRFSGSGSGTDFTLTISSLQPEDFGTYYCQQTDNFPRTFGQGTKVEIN
1.1e-10

// batch mode: one Inhibition of IFN-gamma Release IC50; Donor 4 value per listed entry
1. H2M1763N (antibody, mouse IgG2, V domains shown, Human variable domains, mouse IgG2 Fc (H2M)) VH: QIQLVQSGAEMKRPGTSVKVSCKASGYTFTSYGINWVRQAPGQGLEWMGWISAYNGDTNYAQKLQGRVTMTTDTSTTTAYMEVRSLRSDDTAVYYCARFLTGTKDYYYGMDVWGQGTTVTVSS VL: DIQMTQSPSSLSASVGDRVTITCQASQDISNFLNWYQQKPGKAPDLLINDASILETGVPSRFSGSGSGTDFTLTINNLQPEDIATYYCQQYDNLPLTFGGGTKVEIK
2. H2M1707N (antibody, V domains shown, Human variable domains, mouse IgG2 Fc (H2M)) VH: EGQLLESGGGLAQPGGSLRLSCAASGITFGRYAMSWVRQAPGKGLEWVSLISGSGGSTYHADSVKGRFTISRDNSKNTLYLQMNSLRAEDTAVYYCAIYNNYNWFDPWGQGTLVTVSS VL: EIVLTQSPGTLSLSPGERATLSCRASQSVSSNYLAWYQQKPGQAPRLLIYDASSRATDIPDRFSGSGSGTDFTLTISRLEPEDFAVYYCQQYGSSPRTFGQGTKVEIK

1: 7.5e-11; 2: 1.7e-10
